This listing pairs binders with measured % binding vs no competitor.
Molecular target: T1, HER2ECDHis (human, UniProt P04626 23-653, biotinylated in the cross-block ELISA (sites not given))
T1 construct: range 1-653; expressed in HEK-293F; also called soluble HER2; biotinylated HER2ECDHis
Test: ELISA; competitor 050
Give your result in % as a bare value.

Example cases with answers are listed next.
HuMab 169 (antibody, V domains shown, also called TH1014-169; PC1014-169) VH: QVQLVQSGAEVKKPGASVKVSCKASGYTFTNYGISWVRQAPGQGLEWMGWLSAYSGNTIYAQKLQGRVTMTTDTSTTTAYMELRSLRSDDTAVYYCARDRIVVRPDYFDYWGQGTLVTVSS VL: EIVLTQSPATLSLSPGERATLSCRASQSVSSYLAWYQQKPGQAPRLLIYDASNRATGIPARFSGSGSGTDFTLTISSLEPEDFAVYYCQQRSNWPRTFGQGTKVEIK: 21
HuMab 025 (antibody, V domains shown, also called TH1014-025; PC1014-025) VH: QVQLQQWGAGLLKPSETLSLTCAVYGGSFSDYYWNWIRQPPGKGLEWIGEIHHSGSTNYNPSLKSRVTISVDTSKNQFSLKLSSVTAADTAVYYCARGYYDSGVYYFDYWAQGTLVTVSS VL: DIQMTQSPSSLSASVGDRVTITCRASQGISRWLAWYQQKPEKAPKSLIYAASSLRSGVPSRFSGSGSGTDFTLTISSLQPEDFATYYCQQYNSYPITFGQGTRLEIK: 100
HuMab 091 (antibody, V domains shown, also called TH1014-091; PC1014-091) VH: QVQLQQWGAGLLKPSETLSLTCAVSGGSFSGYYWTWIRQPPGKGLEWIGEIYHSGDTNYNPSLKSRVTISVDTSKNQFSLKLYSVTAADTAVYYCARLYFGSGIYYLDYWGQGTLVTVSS VL: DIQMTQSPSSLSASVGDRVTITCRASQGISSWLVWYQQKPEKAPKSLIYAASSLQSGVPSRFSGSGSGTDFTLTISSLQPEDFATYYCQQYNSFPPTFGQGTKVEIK: 95
HuMab 050 (antibody, V domains shown, also called TH1014-050; PC1014-050) VH: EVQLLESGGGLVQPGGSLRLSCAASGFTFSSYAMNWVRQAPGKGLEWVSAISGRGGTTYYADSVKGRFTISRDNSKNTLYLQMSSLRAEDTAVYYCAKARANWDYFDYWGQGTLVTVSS VL: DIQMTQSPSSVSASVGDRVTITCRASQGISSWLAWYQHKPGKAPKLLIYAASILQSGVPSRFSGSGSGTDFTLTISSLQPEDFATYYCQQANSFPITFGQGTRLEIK: 12

Value lookup for % binding vs no competitor; key = HuMab 098 (antibody, V domains shown, also called TH1014-098; PC1014-098) VH: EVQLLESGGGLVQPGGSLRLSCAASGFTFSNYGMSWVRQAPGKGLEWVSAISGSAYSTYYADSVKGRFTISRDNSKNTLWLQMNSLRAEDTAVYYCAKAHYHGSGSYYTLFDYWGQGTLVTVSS VL: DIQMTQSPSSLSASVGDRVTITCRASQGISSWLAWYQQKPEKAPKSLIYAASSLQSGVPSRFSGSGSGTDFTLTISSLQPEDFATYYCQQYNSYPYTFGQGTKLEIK 100
